Listing of entries alongside the reported ACE inhibitory activity, mean±SD.
- Test system: angiotensin I-converting enzyme (ACE)
- EXPERIMENT_DESCRIPTION: ACE inhibitory activity assay (fluorometric ACE activity assay kit)
- Type: biochemical
- ASSAY_CONTEXT: peptide sample 1 mg/mL, 37 °C, fluorescence ex 320/em 405 nm; mean ± SD, n = 3; SD

Given PMETDDQPNN [P17, synthesized peptide identified from jellyfish fraction PUR20C] , respond with its ACE inhibitory activity, mean±SD.
12.40±2.23^H %

Give the value of ACE inhibitory activity, mean±SD reported for the following: LNIPKPKLNLL [P11, synthesized peptide identified from jellyfish fraction PUR20C]
22.90±3.15^G %

# return recorded ACE inhibitory activity, mean±SD for input KFNEVVYFL [P15, synthesized peptide identified from jellyfish fraction PUR20C]
55.43±3.55^C %

Input HSVLTASYRN [P5, synthesized peptide identified from jellyfish fraction PUR20C] , output reported ACE inhibitory activity, mean±SD.
29.10±3.81^F %

Read the entry LMFMAVAFF [P12, synthesized peptide identified from jellyfish fraction PUR20C] and write its reported ACE inhibitory activity, mean±SD.
47.51±3.39^D %

Give me measured ACE inhibitory activity, mean±SD, please, for this sequence: RPLAKIIP [P8, synthesized peptide identified from jellyfish fraction PUR20C]
29.96±3.35^F %

====

- Tested on: RAW 264.7
- EXPERIMENT_DESCRIPTION: Cytotoxicity assessment (MTT)
- Assay type: cell-based, Murine
- ASSAY_CONTEXT: peptide 10 µg/mL, 72 h, replicate 3
RECORDED_METRIC: Cell viability
Respond with a number, then the unit of measure.

> print(dat)
                              item.sequence  observed.measurement
1  LMFMAVAFF [P12, synthesized peptide identified from jellyfish fraction PUR20C]                74.86%
2  EIILIPMF [P3, synthesized peptide identified from jellyfish fraction PUR20C]                75.39%
3  KFNEVVYFL [P15, synthesized peptide identified from jellyfish fraction PUR20C]                88.22%

Consider the sequence GKNCGETVWE [P9, synthesized peptide identified from jellyfish fraction PUR20C] and give its recorded Cell viability.
88.40%

Give Cell viability for LNIPKPKLNLL [P11, synthesized peptide identified from jellyfish fraction PUR20C]
84.18%

Provide Cell viability value for the following sequence: RARVVPMY [P6, synthesized peptide identified from jellyfish fraction PUR20C]
80.66%

Specify reported Cell viability for the sequence shown: TDSPAPSETTD [P2, synthesized peptide identified from jellyfish fraction PUR20C]
87.52%

====

- EXPERIMENT_DESCRIPTION: ABTS radical scavenging assay
- Format: biochemical
- ASSAY_CONTEXT: supplement tables; replicate 1
RECORDED_METRIC: ABTS
State the value, then name its unit.

> print(dat)
                              item.sequence  recorded.metric  observed.measurement
1  HSVLTASYRN [P5, synthesized peptide identified from jellyfish fraction PUR20C]             ABTS  124.11 TE/mg protein
2  GKNCGETVWE [P9, synthesized peptide identified from jellyfish fraction PUR20C]             ABTS  105.08 TE/mg protein

Give reported ABTS value for LGAEGRSP [P13, synthesized peptide identified from jellyfish fraction PUR20C]
5.91 TE/mg protein
